Entry source: patent US20190022039A1

Entries and their EC50 values follow.
# measured_on: human GLP-1R (Homo sapiens, UniProt P43220)
# Sequence (P43220 24-463): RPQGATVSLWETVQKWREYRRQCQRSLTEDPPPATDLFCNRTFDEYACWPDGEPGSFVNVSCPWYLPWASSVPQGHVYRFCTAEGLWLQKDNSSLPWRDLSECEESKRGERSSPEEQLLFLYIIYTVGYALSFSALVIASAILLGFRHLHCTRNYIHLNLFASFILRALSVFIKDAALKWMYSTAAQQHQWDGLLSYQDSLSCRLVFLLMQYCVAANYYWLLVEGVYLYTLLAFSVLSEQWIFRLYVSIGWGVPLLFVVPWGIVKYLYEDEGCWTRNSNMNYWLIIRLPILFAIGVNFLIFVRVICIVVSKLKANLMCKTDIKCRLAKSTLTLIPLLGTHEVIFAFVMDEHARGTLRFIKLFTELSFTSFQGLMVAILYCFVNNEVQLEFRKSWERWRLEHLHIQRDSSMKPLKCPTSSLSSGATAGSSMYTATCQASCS
# measurement_notes: GLP-1 receptor in vitro calcium assay (intracellular free calcium concentration change induced via GLP-1 receptor)
# reported_conditions: PRG48 cells transfected with human GLP-1R; compound added with 250 pM GLP-1; Ca2+ response ΔF/F; read-out: Ca EC50 value
# Method: The supernatant was removed by centrifugation (1,200 rpm, 3 min), and the cells were suspended at 4×10^6 cells/mL in 5% FBS DMEM/Ham's F-12. 1.0 mL thereof was seeded in a 15 cm dish and cultured (37° C., 5% CO2) overnight. […] The cells were counted, suspended at 0.5×10^6 cells/mL in 5% FBS DMEM/Ham's F-12 medium, and seeded in each well of D-Lysine coat 96 well plate (BD Bioscience) at 7.0×10^4 cells. […]
Give just the number in nM; leave the unit off.

// below: answered molecules
CC(C)CCCC(C)NC(=O)[C@H](Cc1ccc(Cl)cc1)NC(=O)Nc1ccc(NS(=O)(=O)c2ccc(C(C)(C)C)cc2)cc1 (stereo partly drawn): 4.6
CC(C)CCCC(C)NC(=O)[C@@H](Cc1cccnc1)NC(=O)Nc1ccc(NS(=O)(=O)c2ccc(C(C)(C)C)cc2)cc1 (stereo partly drawn): 130

// below: EC50 requested for another molecule
Tell me the measured EC50 of Cc1ccc(S(=O)(=O)Nc2ccc(NC(=O)N[C@H](Cc3ccccc3)C(=O)NCc3ccc(F)cc3)cc2)cc1 , please. 1100

* * *

# measured_on: human GLP-1R (Homo sapiens)
# Construct: expressed in transfected cells; host or cells: PEAK RAPID-derived Gα15-trans48 LD stably expressing cells (PRG48), transiently transfected with Lipofectamine 2000
# measurement_notes: GLP-1 receptor in vitro calcium assay (intracellular free calcium concentration change induced via GLP-1 receptor)
# Assay type: cell-based
# reported_conditions: intensity compared to BETP, activity of BETP as 1
The entries below are paired with their reported GLP-1 receptor action enhancing activity (vs BETP).
Write the value as a bare number.

Cc1ccc(S(=O)(=O)Nc2ccc(NC(=O)N[C@H](Cc3c[nH]c4ccccc34)C(=O)NCCC3CCCCC3)cc2)cc1 [Compound 47]: 208
CCCCCCNc1ccc(S(=O)(=O)Nc2ccc(NC(=O)N[C@H](CC3CCCCC3)C(=O)NC(C)CCCC(C)C)cc2)cn1 (stereo partly shown) [Compound 105]: 56
Cc1ccc(S(=O)(=O)Nc2ccc(NC(=O)N[C@H](CC3CCCCC3)C(=O)NC3CCCCCC3)cc2)cc1 [Compound 41]: 333

Fill in the recorded GLP-1 receptor action enhancing activity (vs BETP) for this compound, with human GLP-1R (Homo sapiens) as test system: CCCCCCCN(C(=O)N[C@H](Cc1ccccc1)C(=O)OC(C)(C)C)c1ccc(NS(=O)(=O)c2ccc(C)cc2)cc1 [Compound 85] 3578

* * *

# measured_on: human GLP-1R (Homo sapiens, UniProt P43220)
# Construct: expressed in transfected cells; host or cells: PEAK RAPID-derived Gα15-trans48 LD stably expressing cells (PRG48), transiently transfected with Lipofectamine 2000
# measurement_notes: GLP-1 receptor in vitro calcium assay (intracellular free calcium concentration change induced via GLP-1 receptor)
# Assay type: cell-based
# reported_conditions: intensity compared to BETP, activity of BETP as 1
Form field: GLP-1 receptor action enhancing activity (vs BETP) (one value per entry).
Please respond with just the number, no unit label.

Reference set (2 entries):
CCCCC(CC)CNC(=O)[C@@H](CC1CCCCC1)NC(=O)Nc1ccc(N2CCOCC2)c(NS(=O)(=O)c2ccc(C(C)(C)C)cc2)c1 (some centres unmarked) [Compound 100]: 503
CCCCCCNC(=O)[C@@H](CC1CCCCC1)NC(=O)Nc1ccc(NS(=O)(=O)c2ccc(C)cc2)cc1 [Compound 18]: 71

Request - read-out GLP-1 receptor action enhancing activity (vs BETP) | tested on human GLP-1R (Homo sapiens, UniProt P43220) | compound Cc1ccc(S(=O)(=O)Nc2ccc(NC(=O)N[C@H](CC(C)C)C(=O)NCCc3cccs3)cc2)cc1 [Compound 28] 14

Lab note: need GLP-1 receptor action enhancing activity (vs BETP) with human GLP-1R (Homo sapiens, UniProt P43220) for entry CCCCCCNc1ccc(S(=O)(=O)Nc2cccc(NC(=O)N[C@H](CC3CCCCC3)C(=O)NC(C)CCCC(C)C)c2)cn1 (some centres unmarked) [Compound 109] , please look it up. 2311

Observed GLP-1 receptor action enhancing activity (vs BETP) on human GLP-1R (Homo sapiens, UniProt P43220) for CCCCCCN(C)C(=O)[C@@H](Cc1ccccc1)NC(=O)Nc1ccc(NS(=O)(=O)c2ccc(C)cc2)cc1 [Compound 53] , please. 91

So what GLP-1 receptor action enhancing activity (vs BETP) did CCCCCCNc1ccc(S(=O)(=O)Nc2cccc(NC(=O)N[C@H](CC3CCCCC3)C(=O)NCC(CC)CCCC)c2)cn1 (some centres unmarked) [Compound 114] get with human GLP-1R (Homo sapiens, UniProt P43220)? 850

Can you look up GLP-1 receptor action enhancing activity (vs BETP) on human GLP-1R (Homo sapiens, UniProt P43220) for CCCCCCNc1ccc(S(=O)(=O)Nc2cccc(NC(=O)N[C@H](CC3CCCCC3)C(=O)NCCCSC)c2)cn1 [Compound 113] ? 898

Query GLP-1 receptor action enhancing activity (vs BETP) on human GLP-1R (Homo sapiens, UniProt P43220) for CSCCCN(c1ccc(NC(=O)N[C@H](Cc2c[nH]c3ccccc23)C(=O)NC(C)CCCC(C)C)cc1)S(=O)(=O)c1ccc(C(C)(C)C)cc1 (some centres unmarked) [Compound 112] 2206

API: value(readout= GLP-1 receptor action enhancing activity (vs BETP), system= human GLP-1R (Homo sapiens, UniProt P43220), query= CCCCCNC(=O)[C@@H](Cc1ccccc1)NC(=O)Nc1ccc(NS(=O)(=O)c2ccc(C)cc2)cc1 [Compound 35] ) 38

Give GLP-1 receptor action enhancing activity (vs BETP) (human GLP-1R (Homo sapiens, UniProt P43220)) of the following compound: Cc1ccc(S(=O)(=O)Nc2ccc(NC(=O)N[C@H](Cc3ccccc3)C(=O)NC[C@H]3CCC4CC3C4(C)C)cc2)cc1 (some centres unmarked) [Compound 60] 560

// map Cc1cc(C)c(S(=O)(=O)Nc2ccc(NC(=O)N[C@@H](Cc3ccccc3)C(=O)OC(C)(C)C)cc2)c(C)c1 [Compound 80] to recorded GLP-1 receptor action enhancing activity (vs BETP) (system: human GLP-1R (Homo sapiens, UniProt P43220)) 67

Test system human GLP-1R (Homo sapiens, UniProt P43220); read-out GLP-1 receptor action enhancing activity (vs BETP); what value for CCCCCCNC(=O)[C@@H](Cc1ccccc1)NC(=O)Nc1ccc(NS(=O)(=O)c2ccc(C)cc2)cc1 [Compound 2] ? 37

Query GLP-1 receptor action enhancing activity (vs BETP) on human GLP-1R (Homo sapiens, UniProt P43220) for Cc1ccc(S(=O)(=O)Nc2ccc(NC(=O)N[C@H](Cc3ccccc3)C(=O)NC(C)CCCC(C)C)cc2)cc1 (some centres unmarked) [Compound 55] 558

Query GLP-1 receptor action enhancing activity (vs BETP) on human GLP-1R (Homo sapiens, UniProt P43220) for CC(C)CCCC(C)NC(=O)[C@@H](CC1CCCCC1)NC(=O)N(CC(=O)O)c1ccc(NS(=O)(=O)c2ccc(C(C)(C)C)cc2)cc1 (some centres unmarked) [Compound 108] 17107

* * *

# measured_on: human GLP-1R (Homo sapiens)
# Construct: expressed in transfected cells; host or cells: PEAK RAPID-derived Gα15-trans48 LD stably expressing cells (PRG48), transiently transfected with Lipofectamine 2000
# measurement_notes: GLP-1 receptor in vitro calcium assay (intracellular free calcium concentration change induced via GLP-1 receptor)
# Assay type: cell-based
# reported_conditions: intensity compared to BETP, activity of BETP as 1
reported_metric: GLP-1 receptor action enhancing activity (vs BETP)

Below: 5 compounds and their reported GLP-1 receptor action enhancing activity (vs BETP).
Cc1ccc(S(=O)(=O)Nc2ccc(NC(=O)N[C@H](Cc3ccccc3)C(=O)NCC3CCCC3)cc2)cc1 [Compound 27]: 23
CC(C)c1ccc(S(=O)(=O)Nc2ccc(NC(=O)N[C@@H](Cc3ccccc3)C(=O)OC(C)(C)C)cc2)cc1 [Compound 72]: 37
CCCCCCCNC(=O)[C@@H](Cc1ccccc1)NC(=O)Nc1ccc(NS(=O)(=O)c2ccc(C)cc2)cc1 [Compound 6]: 187
CCCCC(CC)CNC(=O)[C@@H](CC1CCCCC1)NC(=O)N(CC(=O)O)c1ccc(NS(=O)(=O)c2ccc(C(C)(C)C)cc2)cc1 (some centres unmarked) [Compound 101]: 1272
CC(C)(C)OC(=O)[C@H](Cc1ccccc1)NC(=O)Nc1ccc(NS(=O)(=O)c2ccc(C(F)(F)F)cc2)cc1 [Compound 81]: 24

So what does the record say about GLP-1 receptor action enhancing activity (vs BETP) for CC(C)CCCC(C)NC(=O)[C@@H](Cc1cccnc1)NC(=O)Nc1cccc(NS(=O)(=O)c2ccc(C(C)(C)C)cc2)c1 (some centres unmarked) [Compound 103] ? 195

Fill blank: measured GLP-1 receptor action enhancing activity (vs BETP) of the compound Cc1ccc(S(=O)(=O)Nc2ccc(NC(=O)N[C@H](Cc3ccccc3)C(=O)NCc3ccccc3)cc2)cc1 [Compound 14] is ____. 14

Quick one: GLP-1 receptor action enhancing activity (vs BETP) of Cc1ccc(S(=O)(=O)Nc2ccc(NC(=O)N[C@H](Cc3c[nH]c4ccccc34)C(=O)NC3CCCCCC3)cc2)cc1 [Compound 43] ? 160

What value of measured GLP-1 receptor action enhancing activity (vs BETP) is listed for Cc1ccc(S(=O)(=O)Nc2ccc(NC(=O)N[C@H](Cc3ccccc3)C(=O)NC3CCCCC3)cc2)cc1 [Compound 3] ? 15

Requested field: GLP-1 receptor action enhancing activity (vs BETP). Item: Cc1ccc(S(=O)(=O)Nc2ccc(NC(=O)N[C@H](Cc3ccccc3)C(=O)NC(C)(C)C34CC5CC(CC(C5)C3)C4)cc2)cc1 [Compound 61] 1710

Report GLP-1 receptor action enhancing activity (vs BETP) for Cc1ccc(S(=O)(=O)Nc2ccc(NC(=O)N[C@H](Cc3ccccc3)c3nnc(S)n3-c3ccccc3)cc2)cc1 [Compound 90] please. 18

For CSCCCNC(=O)[C@@H](CC1CCCCC1)NC(=O)Nc1ccc(NS(=O)(=O)c2ccc(C(C)(C)C)cc2)cc1 [Compound 91] , what is its reported GLP-1 receptor action enhancing activity (vs BETP)? 446

May I ask what GLP-1 receptor action enhancing activity (vs BETP) has been recorded for CC(C)(C)c1ccc(S(=O)(=O)Nc2ccc(NC(=O)N[C@H](CC3CCCCC3)c3nc(C(C)(C)C)no3)cc2)cc1 [Compound 82] ? 1606

// lookup GLP-1 receptor action enhancing activity (vs BETP) for CCCc1ccc(S(=O)(=O)Nc2ccc(NC(=O)N[C@@H](Cc3ccccc3)C(=O)OC(C)(C)C)cc2)cc1 [Compound 71] 64
